- assayed-system: HsKRS (Homo sapiens, UniProt Q15046)
- Construct: gene KARS1
- Sequence (Q15046 whole entry): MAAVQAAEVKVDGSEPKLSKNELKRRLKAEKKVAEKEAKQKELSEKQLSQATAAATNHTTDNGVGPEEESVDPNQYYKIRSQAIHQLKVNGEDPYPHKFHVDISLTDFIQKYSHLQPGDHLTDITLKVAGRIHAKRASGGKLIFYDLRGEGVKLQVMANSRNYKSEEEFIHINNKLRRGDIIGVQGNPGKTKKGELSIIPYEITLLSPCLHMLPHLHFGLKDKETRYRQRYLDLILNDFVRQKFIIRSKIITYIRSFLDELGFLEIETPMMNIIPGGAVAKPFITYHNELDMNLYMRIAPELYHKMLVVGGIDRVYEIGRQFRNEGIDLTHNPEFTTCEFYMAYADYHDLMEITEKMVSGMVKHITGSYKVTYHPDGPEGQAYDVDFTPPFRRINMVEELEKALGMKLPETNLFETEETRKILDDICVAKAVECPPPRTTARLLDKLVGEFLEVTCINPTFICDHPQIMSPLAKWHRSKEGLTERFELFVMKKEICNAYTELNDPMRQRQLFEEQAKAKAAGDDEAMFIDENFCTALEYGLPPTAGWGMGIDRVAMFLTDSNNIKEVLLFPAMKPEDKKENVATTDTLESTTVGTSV
- experimental-details: biochemical
- Parameters: HsKRS lysine activation, pyrophosphate release with BIOMOL Green absorbance at 650 nm
- measurement-parameters: read-out: HsKRS pIC50 (converted)
assay-metric: IC50 (µM)
Could you give me the number in µM? Just the number is fine.

INSERT INTO measurements (molecule_smiles, assayed_system, unit_annotation, assay_result) VALUES
  ('O=C(NCC1(O)CCC(F)(F)CC1)c1cc(=O)c2cc(F)ccc2o1', 'HsKRS (Homo sapiens, UniProt Q15046)', 'µM', 20);

Prompt: Assign IC50 to the following record: [N-]=[N+]=NCCOCCOCCOCCNC(=O)c1ccc(S(=O)(=O)Nc2cc(F)cc3c(=O)cc(C(=O)NCC4CCCCC4)oc23)cc1
Response: 43.7

Prompt: State its IC50: O=C(NCC1CCCCC1)c1cc(=O)c2cc(F)cc(NS(=O)(=O)c3ccccc3)c2o1
Response: 6.31
